# study_target: human CCR6 (Homo sapiens)
# Construct: expressed in transfected cells; host or cells: Ba/F3 cells (murine pro-B line), hCCR6-transfected, CMV promoter, sodium butyrate induction
# Sequence (P51684 whole entry): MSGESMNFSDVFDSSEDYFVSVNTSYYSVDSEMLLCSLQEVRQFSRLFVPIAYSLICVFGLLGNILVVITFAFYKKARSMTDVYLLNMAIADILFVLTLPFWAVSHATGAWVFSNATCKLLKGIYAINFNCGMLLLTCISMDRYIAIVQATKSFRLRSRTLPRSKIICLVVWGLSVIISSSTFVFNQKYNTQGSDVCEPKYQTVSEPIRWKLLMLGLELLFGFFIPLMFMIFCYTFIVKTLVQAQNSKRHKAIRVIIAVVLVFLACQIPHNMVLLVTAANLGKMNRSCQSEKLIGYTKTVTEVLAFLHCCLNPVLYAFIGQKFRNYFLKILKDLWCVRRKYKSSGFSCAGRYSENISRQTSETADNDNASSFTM
# run_description: Migration (chemotaxis) assay, hCCR6-transfected Ba/F3 cells toward CCL20
# Type: cell-based
# protocol_conditions: hCCR6-transfected Ba/F3 cells in human serum; recombinant human CCL20 10 nM; 37° C. 45 minutes; read-out: Potency (IC50 value in the migration assay)
pIC50: −log10 of the molar value.
measurement_name: pIC50

A selection of reference data follows.
> print(dat)
                                   compound      reported
1  N#Cc1cn(CCO)c2ncc(-c3ccc(S(=O)(=O)N4CCC(Nc5ccc(C(F)(F)F)cn5)CC4)cc3)cc12        > 8.30
2  NC(=O)c1cc2cc(-c3ccc(S(=O)(=O)N4CCC(Nc5ccc(C(F)(F)F)cn5)CC4)cc3)ccc2[nH]1  7.00 to 8.30
3  NC(=O)N1C[C@@H]2CN(c3ccc(S(=O)(=O)N4CCC(Nc5ccc(C(F)(F)F)cn5)CC4)cc3)C[C@@H]2C1  7.00 to 8.30
4  O=C1NC(=O)N2CCN(c3ccc(S(=O)(=O)N4CCC(Nc5ccc(C(F)(F)F)cn5)CC4)cc3)CC12 (stereo not shown)  7.00 to 8.30
5  CS(=O)(=O)N1CCCC(c2ccc(S(=O)(=O)N3CCC(Nc4ccc(C(F)(F)F)cn4)CC3)cc2)C1 (stereo not shown)  7.00 to 8.30
6  N=[S@](=O)(c1ccc(-c2ccc3oc(N)nc3c2)cc1)N1CCC(Nc2ccc(C(F)(F)F)cc2)CC1  7.00 to 8.30

Consider the additional compound presented here.
Ask: Any idea what its pIC50 is? The compound is O=C1CNC(=O)C2(CCN(c3ccc(S(=O)(=O)N4CCC(Nc5ccc(C(F)(F)F)cn5)CC4)cc3)CC2)N1
Reply: 5.00 to 7.00
